- Tested on: Mouse Lung Cancer (3LL)
- protocol-details: In vitro anti-cancer cell activity, 3LL
- Format: cell-based
- cond: read-out: In vitro anti-cancer cell activities IC50, Mouse Lung Cancer (3LL)
outcome-measure: pIC50
Answers are plain numbers, as −log10 of the molar value.

Short answer for NC(=O)c1nnc(NC2CCCNC2)c2cc(-c3ccc(F)cc3)sc12 (stereo not shown) [Compound 1] : pIC50 was 5.73

###

For each of the compounds below, state its IC50.
- Tested on: HT-29 Cell line
- protocol-details: SRB cell multiplication test, sensitizing to cytotoxic antitumor drugs
- cond: Homo sapiens, HT-29, 72 h, read-out: IC50 Drug alone
One number for each entry, in µM.

smiles_string=O=c1[nH]cc(F)c(=O)[nH]1 measured=1.1

Please give IC50 for each item listed below.
1. Nc1ccn([C@@H]2O[C@H](CO)[C@@H](O)C2(F)F)c(=O)n1
2. CC(=O)O[C@H]1C(=O)[C@@]2(C)[C@H]([C@H](OC(=O)c3ccccc3)[C@]3(O)C[C@H](OC(=O)[C@H](O)[C@@H](NC(=O)c4ccccc4)c4ccccc4)C(C)=C1C3(C)C)[C@]1(OC(C)=O)CO[C@@H]1C[C@@H]2O

RESULT:
0.07
0.003

###

- System: HT-29 Cell line
- protocol-details: SRB cell multiplication test, sensitizing to cytotoxic antitumor drugs
- cond: read-out: IC50 +100 nM AZD7762; HT-29, SRB, 72 hours; drug +100 nM AZD7762
For each of the compounds below, state its pIC50.
One number for each entry, as −log10 of the molar value.

Please give pIC50 for each item listed below.
1. O=C1[O][Pt]2([NH][C@@H]3CCCC[C@H]3[NH]2)[O]C1=O
2. O=c1[nH]cc(F)c(=O)[nH]1
3. N.N.[Cl][Pt][Cl] [DDP, cisplatin]
4. Nc1ccn([C@@H]2O[C@H](CO)[C@@H](O)C2(F)F)c(=O)n1
5. CC(=O)O[C@H]1C(=O)[C@@]2(C)[C@H]([C@H](OC(=O)c3ccccc3)[C@]3(O)C[C@H](OC(=O)[C@H](O)[C@@H](NC(=O)c4ccccc4)c4ccccc4)C(C)=C1C3(C)C)[C@]1(OC(C)=O)CO[C@@H]1C[C@@H]2O

RESULT:
[5.96, 6.52, 5.89, 8.30, 8.30]

Where do these numbers come from? They come from patent US8815863B2.
